- tested.target: Integrin alpha-V/beta-5 (Homo sapiens, UniProt P06756+P18084)
- Sequence (P06756 31-889 limits assumed): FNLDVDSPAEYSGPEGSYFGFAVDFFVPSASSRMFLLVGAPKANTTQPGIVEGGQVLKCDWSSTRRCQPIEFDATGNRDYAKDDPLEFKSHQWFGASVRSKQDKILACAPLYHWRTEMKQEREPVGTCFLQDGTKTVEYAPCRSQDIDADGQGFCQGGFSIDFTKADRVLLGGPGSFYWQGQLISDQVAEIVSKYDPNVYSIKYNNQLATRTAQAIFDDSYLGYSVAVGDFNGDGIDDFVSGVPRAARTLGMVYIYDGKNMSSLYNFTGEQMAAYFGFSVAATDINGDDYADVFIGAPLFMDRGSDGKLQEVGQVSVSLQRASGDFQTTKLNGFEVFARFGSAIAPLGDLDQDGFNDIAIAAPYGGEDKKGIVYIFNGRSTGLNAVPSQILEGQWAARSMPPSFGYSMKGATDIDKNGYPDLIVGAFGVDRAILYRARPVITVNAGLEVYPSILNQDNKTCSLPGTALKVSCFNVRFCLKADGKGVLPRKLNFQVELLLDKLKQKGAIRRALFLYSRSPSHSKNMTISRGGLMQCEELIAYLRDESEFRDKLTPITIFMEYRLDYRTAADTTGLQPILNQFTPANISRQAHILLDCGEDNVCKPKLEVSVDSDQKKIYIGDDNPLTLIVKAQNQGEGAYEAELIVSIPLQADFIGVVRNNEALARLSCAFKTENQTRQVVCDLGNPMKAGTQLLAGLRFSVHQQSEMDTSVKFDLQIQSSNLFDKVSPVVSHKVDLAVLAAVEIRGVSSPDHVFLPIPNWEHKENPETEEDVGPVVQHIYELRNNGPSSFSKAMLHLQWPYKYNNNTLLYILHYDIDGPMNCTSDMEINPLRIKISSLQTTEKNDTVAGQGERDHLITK
- Sequence (P06756 891-1048 limits assumed): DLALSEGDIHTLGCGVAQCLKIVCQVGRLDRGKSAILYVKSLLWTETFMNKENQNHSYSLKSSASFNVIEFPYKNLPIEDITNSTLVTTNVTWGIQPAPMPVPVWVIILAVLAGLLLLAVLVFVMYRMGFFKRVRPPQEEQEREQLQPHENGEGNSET
- Sequence (P18084 24-799 limits assumed): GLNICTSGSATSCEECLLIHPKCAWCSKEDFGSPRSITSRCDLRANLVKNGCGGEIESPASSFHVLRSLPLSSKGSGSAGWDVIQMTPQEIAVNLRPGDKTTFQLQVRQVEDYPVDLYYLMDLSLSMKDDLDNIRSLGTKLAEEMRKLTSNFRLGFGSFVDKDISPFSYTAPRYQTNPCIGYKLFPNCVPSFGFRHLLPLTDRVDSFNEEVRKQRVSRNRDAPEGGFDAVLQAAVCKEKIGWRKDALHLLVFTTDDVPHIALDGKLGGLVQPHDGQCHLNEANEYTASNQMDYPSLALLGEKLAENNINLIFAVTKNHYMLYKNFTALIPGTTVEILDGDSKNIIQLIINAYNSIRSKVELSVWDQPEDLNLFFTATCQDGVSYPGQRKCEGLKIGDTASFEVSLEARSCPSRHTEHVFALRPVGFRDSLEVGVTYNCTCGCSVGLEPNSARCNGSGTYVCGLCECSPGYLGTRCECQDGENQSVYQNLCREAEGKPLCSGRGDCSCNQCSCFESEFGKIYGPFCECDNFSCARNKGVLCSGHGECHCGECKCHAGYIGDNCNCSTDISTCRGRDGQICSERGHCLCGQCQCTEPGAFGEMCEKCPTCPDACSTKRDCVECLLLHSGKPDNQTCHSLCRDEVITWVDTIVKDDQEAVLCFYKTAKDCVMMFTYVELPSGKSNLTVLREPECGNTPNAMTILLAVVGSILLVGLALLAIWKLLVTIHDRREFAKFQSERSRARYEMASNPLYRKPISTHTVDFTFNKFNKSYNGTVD
- run.description: Displacement of vitronectin from human integrin alphaV-beta5
pIC50: −log10 of the molar value.
readout.type: pIC50

compound | pIC50
O=C(O)CC1CC(CNC(=O)CCNCc2ccccn2)=CCc2ccccc21 (stereo not given) | 6.92
O=C(O)CC1CC(CNC(=O)CCNc2ccccn2)=CCc2ccccc21 (stereo not given) | 7.66
CN(CCCC(=O)NCC1=CCc2ccccc2C(CC(=O)O)C1)c1ccccn1 (stereo not given) | 7.40

P = O=C(O)CC1CC(CNC(=O)CCCNC2=NCCCN2)=CCc2ccccc21 (stereo not given)
Q = O=C(O)CC1CC(CNC(=O)CCCNc2nccs2)=CCc2ccccc21 (stereo not given)
# input Please state the entry with greater pIC50 among P and Q . I would appreciate it if you answered with the label of your choice.
# output P
(P: 10.00, Q: 7.70)

Where do these numbers come from? They come from ChEMBL document CHEMBL1135955.
